Measured IC50 by item
- TARGET: recombinant DYRK1A kinase (Homo sapiens (Human), UniProt Q13627)
- TEST_METHOD_NOTES: DYRK1A kinase assay (Ser/Thr 18 peptide Z-lyte FRET)
- CONDITION_CONTEXT: DYRK1A kinase activity, Z-lyte Ser/Thr 18 peptide, 15 μM ATP; method text calls the value IC50; read-out: EC50 (the source's name)
RECORDED_ENDPOINT: IC50 (nM)

smi=CNC(=O)c1cnc2ccc(-c3ccn4nc(N[C@H]5CC[C@](C)(O)CC5)nc(OC)c34)cn12 qualifying_sign== result_number=1.1
smi=COc1nc(N[C@@H]2CCN(C3COC3)CC2(F)F)nn2ccc(-c3ccc4nnn(CC(F)(F)F)c4c3)c12 qualifying_sign== result_number=0.9
smi=COc1nc(NC2CCC3(CC2)CN(C(C)=O)C3)nn2ccc(-c3ccc4nccnc4c3)c12 qualifying_sign== result_number=1.3
smi=COCC(=O)N[C@]1(C)C[C@H](Nc2nc(OC)c3c(-c4ccc5nccnc5c4)ccn3n2)C1 qualifying_sign== result_number=1.3
smi=COc1nc(N[C@H]2CCN(CCO)C[C@H]2F)nn2ccc(-c3cc(F)c4nc(C)n(CC(F)F)c4c3)c12 qualifying_sign== result_number=2.7
smi=COc1nc(N[C@H]2CC[C@@]3(CCO3)CC2)nn2ccc(-c3cnc4nccn4c3)c12 qualifying_sign== result_number=3.4
smi=COc1nc(N[C@H]2C[C@](C)(O)C2)nn2ccc(-c3ccc4nnn(CC(F)F)c4c3)c12 qualifying_sign== result_number=0.5
smi=COc1nc(N[C@H]2CCN(C3COC3)C[C@H]2F)nn2ccc(-c3ccc4ncn(CC(F)F)c4c3)c12 qualifying_sign== result_number=1.4
smi=COc1nc(N[C@@H]2CN(C(C)=O)C[C@@H]2F)nn2ccc(-c3ccc4nnn(CCF)c4c3)c12 qualifying_sign=< result_number=0.2
smi=COc1nc(N[C@H]2CCN(C3CCC3)CC2(F)F)nn2ccc(-c3ccc4nc(C)n(CC(F)F)c4c3)c12 qualifying_sign== result_number=21.8
smi=COc1nc(N[C@@H]2CCN(CCO)CC2(F)F)nn2ccc(-c3cc(F)c4nc(C)n(C(C)C)c4c3)c12 qualifying_sign== result_number=2.6
smi=COc1nc(N[C@H]2C[C@@](C)(O)C2)nn2ccc(-c3ccc4nc(C)n(CCO)c4c3)c12 qualifying_sign== result_number=2.1
smi=CCN1C[C@H](F)[C@H](Nc2nc(OC)c3c(-c4ccc5nnn(CC(F)F)c5c4)ccn3n2)C1 qualifying_sign== result_number=1
smi=COc1nc(N[C@@H](C)c2ccccn2)nn2ccc(-c3ccn4nccc4c3)c12 qualifying_sign== result_number=178
smi=COc1nc(N[C@H]2C[C@](C)(N)C2)nn2ccc(-c3ccc4nnn(C)c4c3)c12 qualifying_sign== result_number=7.5
smi=COCCO[C@H]1CC[C@@H](Nc2nc(OC)c3c(-c4ccc5nccn5c4)ccn3n2)CC1 qualifying_sign== result_number=6.7
smi=COc1nc(NC23CCC(O)(CC2)C3)nn2ccc(-c3cnc4nccn4c3)c12 qualifying_sign== result_number=2.4
smi=COc1nc(N[C@H]2CC[C@](C)(OC)CC2)nn2ccc(-c3cnc4nccn4c3)c12 qualifying_sign== result_number=0.9
smi=COc1nc(N[C@H]2C[C@](C)(NC(C)=O)C2)nn2ccc(-c3ccc4nccnc4c3)c12 qualifying_sign== result_number=0.9
smi=[2H]C([2H])([2H])Oc1nc(N[C@@H]2CN(C(C)=O)C[C@@H]2F)nn2ccc(-c3ccc4nccnc4c3)c12 qualifying_sign== result_number=2.2
smi=COc1nc(N[C@@H]2CN(C)C[C@@H]2F)nn2ccc(-c3ccc4nc(C)n(CC(F)F)c4c3)c12 qualifying_sign== result_number=1.9
smi=COc1nc(N[C@@H]2CCC(=O)N(C)C2)nn2ccc(-c3ccc4ncccc4c3)c12 qualifying_sign== result_number=4.9
smi=COc1nc(N[C@H]2CCN(C)C[C@H]2F)nn2cc(F)c(-c3ccc4ncccc4c3)c12 qualifying_sign== result_number=1.7
smi=CN1CC[C@@H](Nc2nc(OC3COC3)c3c(-c4ccc5nccnc5c4)ccn3n2)C(F)(F)C1 qualifying_sign== result_number=3.8
smi=COc1nc(N[C@@H]2CN(C)C[C@@H]2F)nn2ccc(-c3ccc4nnn(CC(F)F)c4c3)c12 qualifying_sign== result_number=4.6
smi=COc1nc(N[C@H]2CCN(C3COC3)C[C@H]2F)nn2ccc(-c3ccc4nnn(CCF)c4c3)c12 qualifying_sign== result_number=1.1
smi=COc1nc(N[C@@H]2CCN(C(C)=O)CC2(F)F)nn2ccc(-c3ccc4nnn(CC(F)F)c4c3)c12 qualifying_sign== result_number=0.7
smi=COc1nc(N[C@@H]2CCN(C3COC3)CC2(F)F)nn2ccc(-c3ccc4nccnc4c3)c12 qualifying_sign== result_number=3.3
smi=COc1nc(N[C@@H]2CCN(C)CC2(F)F)nn2ccc(-c3ccc4nccnc4c3)c12 qualifying_sign== result_number=3.3
smi=C[C@]1(O)CC[C@H](Nc2nc(O)c3c(-c4ccc5nccnc5c4)ccn3n2)CC1 qualifying_sign== result_number=34.4
